System: IGROV1 ovarian
assay name: NCI-60 one-dose screen, 48 h
condition context: 10 µM unless noted
Procedure: Growth inhibition of the IGROV1 human tumor cell line is measured as a screen for anti-cancer activity. Cells are grown in 96 well plates and exposed to the test compound for 48 hours. Compounds are tested at a single concentration, which is 10^-5 M for most compounds. The reported endpoint is percent growth (GI% or GIPRCNT), where numbers from 0 - 100% represent growth inhibition, and numbers from -100% - 0 represent cell death. For example, a value of 40 represents 60% growth inhibition. […]
The panel holds about 83,000 compounds, 20% with a hit somewhere; the sample as a whole holds those more often. Active and inactive are the calls of the source. How the source made its calls: active means growth percent below 10; inactive means the rest.
Outcome codes: active, inactive

{"compound": "COc1cc(NC(C)CCCN)c2ncccc2c1Oc1ccc(Cl)cc1 (stereo not given)", "label value": "inactive"}
{"compound": "COc1cc(C2CC(c3cccc(Nc4ccnc5cc(Cl)ccc45)c3)=NN2c2ccccc2)cc(OC)c1OC (stereo not given)", "label value": "inactive"}
{"compound": "COc1ccc(Nc2ncccc2C(=O)NCc2cn(Cc3cc(OC)cc(OC)c3)nn2)cc1", "label value": "inactive"}
{"compound": "CNCc1cccc2c1OCCOCCOCCC(C)S(=O)(=O)c1ccc(cc1)-c1cnc(N)c(n1)C(=O)N2 (stereo not given)", "label value": "inactive"}
{"compound": "C#CC[C@@H]1C[C@]2(C)[C@H]3CC=C4[C@H]5[C@@H](C)[C@H](C)CC[C@]5(C(=O)NCCCCCCCCN)CC[C@@]4(C)[C@]3(C)CC[C@H]2C(C)(C)[C@H]1OC(C)=O", "label value": "inactive"}
{"compound": "COc1ccc(C(=O)C(CN(C)C)c2ccccc2)cc1 (stereo not given)", "label value": "active"}
{"compound": "CC(=O)N[C@@H](CCC(N)=O)C(=O)O", "label value": "inactive"}
{"compound": "COc1ccc(-c2nsc3c2NC(=O)CC3c2cccc(F)c2)cc1 (stereo not given)", "label value": "inactive"}
{"compound": "C1=C\\CCCCN2CC[C@H]3[C@H](CCCC/C=C\\CCCN4C[C@@H](CCCCC/1)C[C@@H]3C4)C2", "label value": "active"}
{"compound": "Clc1ccc(Nc2ncnc3c2sc2ncccc23)c(Cl)c1", "label value": "inactive"}
{"compound": "C/C(=N\\NC(=S)N1CCCCC1)c1ccccn1", "label value": "inactive"}
{"compound": "Cc1ccccc1N1C(c2ccccc2)=NNC12C=CC(=O)c1c(O)cccc12 (stereo not given)", "label value": "inactive"}
{"compound": "O=c1cc(-c2ccc3c(c2)OCCO3)oc2cc(Cl)ccc12", "label value": "active"}
{"compound": "COc1cc(C2=NOC(c3cc(OC)c(OC)c(OC)c3)C2)ccc1OCCCCOc1cc2c(cc1OC)C(=O)N1CCC[C@H]1C=N2 (stereo not given in full)", "label value": "active"}
{"compound": "CC(C)NC(=O)OCC#CCOC(=O)NC(C)C", "label value": "inactive"}
{"compound": "COc1cc(C2Nc3ccccc3S2)cc(CN2CCOCC2)c1O (stereo not given)", "label value": "inactive"}
{"compound": "CC(=O)c1nn(-c2ccccc2)/c(=N\\N=C\\c2coc3ccc(F)cc3c2=O)s1", "label value": "inactive"}
{"compound": "CCCCCCCCCCCCCC(=S)NCCCC[C@H](NC(=O)OCc1ccccc1)C(=O)Nc1ccccc1", "label value": "inactive"}
{"compound": "CN(CCO)c1ccc(N2Cc3ccccc3OC3=C2C(=O)c2c(O)ccc(O)c2C3=O)cn1", "label value": "active"}
{"compound": "C/C=C(\\C)C(C(=O)NC1CCCCC1)N(C(=O)C1CCc2cc(F)ccc2O1)c1ccc([N+](=O)[O-])cc1 (stereo not given)", "label value": "inactive"}
{"compound": "C=CC[C@]1(O)CC[C@H]2[C@@H]3CCc4cc(O)ccc4[C@H]3CC[C@@]21C", "label value": "inactive"}
{"compound": "C=C(C)c1ccc(/C=N/NC(N)=S)cc1", "label value": "inactive"}
{"compound": "Nc1cccc(S(=O)(=O)c2cccc(N)c2)c1", "label value": "inactive"}
{"compound": "CC[C@H](Nc1nc(N)nc(N)c1Cl)c1nc2cccc(NCc3ccc(C(=O)NO)cc3)c2c(=O)n1-c1ccccc1", "label value": "active"}
{"compound": "Cc1cc(C)c(C#N)c(SCC(=O)c2sc3c(C#N)c(C)cc(C)[n+]3c2[O-])n1", "label value": "active"}
{"compound": "CN=C1C=C/C(=N/N=c2/ccn(O)cc2C)C=C1C", "label value": "inactive"}
{"compound": "NC(N)=N/N=C/c1ccccc1", "label value": "inactive"}
{"compound": "COc1cc2cc(C(=O)Nc3ccccc3)c(N)nc2cc1OC", "label value": "active"}
{"compound": "CN1CCN(Cc2ccc(NC(=O)c3cnc(F)c(C#Cc4cnc(N)c5ncccc45)c3)cc2C(F)(F)F)CC1", "label value": "inactive"}
{"compound": "Cc1n(Cc2ccc3ccccc3n2)cc[n+]1Cc1ccc2ccccc2n1", "label value": "inactive"}
{"compound": "C#CC[C@@H]1C[C@]2(C)[C@H]3CC=C4[C@H]5CC(C)(C)CC[C@]5(C(=O)NCCCCN)CC[C@@]4(C)[C@]3(C)CC[C@H]2C(C)(C)[C@H]1OC(C)=O", "label value": "inactive"}
{"compound": "Cc1c(-c2ccc(-c3ccccc3F)cc2)nc2ccc(F)cc2c1C(=O)O", "label value": "inactive"}
{"compound": "COc1cc(C)cc2oc3oc(=O)c(-c4csc(-c5cc6ccccc6oc5=O)n4)cc3c(=O)c12", "label value": "inactive"}
{"compound": "ClCc1cccc(CSc2ncnc3c2ncn3Cc2cccc(CCl)c2)c1", "label value": "inactive"}
{"compound": "CCOc1ccc([C@@H]2[C@@H](Oc3ccccc3)C(=O)N2c2cc(OC)c(OC)c(OC)c2)cc1", "label value": "inactive"}
{"compound": "CC(C)COC(=O)NC(C)(C)C", "label value": "inactive"}
{"compound": "Nc1ccc(N(O)/C=C2\\C=CC=CC2=O)cc1N", "label value": "inactive"}
{"compound": "NNC(=O)Cc1ccccc1", "label value": "inactive"}
{"compound": "COc1ccc([C@@H]2[C@@H](Cl)C(=O)N2c2cc(OC)c(OC)c(OC)c2)cc1C", "label value": "inactive"}
{"compound": "OC(c1cc2c(Cl)cc(Cl)cc2c2cc(C(F)(F)F)ccc12)C1CCCCN1 (stereo not given)", "label value": "active"}
